Data origin: paper PMC3038628

# assay remarks: Dual polarization interferometry of protein adsorption to immobilized bilayer
# Format: binding
# assay setup: injection concentration not stated
Each record here notes measured Adsorption/binding to immobilized bilayers by DPI, % of wild type.
Respond numerically; units are % and should not be typed.

F165D: α-TTP mutant, Phe165 to Asp (helix A8) (protein, UniProt P49638 1-278, looked up, variant F165D) Alpha-tocopherol transfer …: MAEARSQPSAGPQLNALPDHSPLLQPGLAALRRRAREAGVPLAPLPLTDSFLLRFLRARDFDLDLAWRLLKNYYKWRAECPEISADLHPRSIIGLLKAGYHGVLRSRDPTGSKVLIYRIAHWDPKVFTAYDVFRVSLITSELIVQEVETQRNGIKAIFDLEGWQDSHAFQITPSVAKKIAAVLTDSFPLKVRGIHLINEPVIFHAVFSMIKPFLTEKIKERIHMHGNNYKQSLLQHFPDILPLEYGGEEFSMEDICQEWTNFIMKSEDYLSSISESIQ	11
K211A: α-TTP mutant, surface Lys211 (helix A10) to Ala (protein, UniProt P49638 1-278, looked up, variant K211A) Alpha-tocopherol transfer …: MAEARSQPSAGPQLNALPDHSPLLQPGLAALRRRAREAGVPLAPLPLTDSFLLRFLRARDFDLDLAWRLLKNYYKWRAECPEISADLHPRSIIGLLKAGYHGVLRSRDPTGSKVLIYRIAHWDPKVFTAYDVFRVSLITSELIVQEVETQRNGIKAIFDLEGWQFSHAFQITPSVAKKIAAVLTDSFPLKVRGIHLINEPVIFHAVFSMIAPFLTEKIKERIHMHGNNYKQSLLQHFPDILPLEYGGEEFSMEDICQEWTNFIMKSEDYLSSISESIQ	123

Next up:
Exercise: Suppose we examine the molecule K217A: α-TTP mutant, surface Lys217 (helix A11) to Ala (protein, UniProt P49638 1-278, looked up, variant K217A) Alpha-tocopherol transfer …: MAEARSQPSAGPQLNALPDHSPLLQPGLAALRRRAREAGVPLAPLPLTDSFLLRFLRARDFDLDLAWRLLKNYYKWRAECPEISADLHPRSIIGLLKAGYHGVLRSRDPTGSKVLIYRIAHWDPKVFTAYDVFRVSLITSELIVQEVETQRNGIKAIFDLEGWQFSHAFQITPSVAKKIAAVLTDSFPLKVRGIHLINEPVIFHAVFSMIKPFLTEAIKERIHMHGNNYKQSLLQHFPDILPLEYGGEEFSMEDICQEWTNFIMKSEDYLSSISESIQ ; what Adsorption/binding to immobilized bilayers by DPI, % of wild type value has been reported?
Solution: 171
